# Assay summary: Tissue distribution study after intravenous administration
# Type: in vivo, Sprague-Dawley rats
# Condition context: Sprague-Dawley, rat, iv; Lung, 4 h, rats, i.v. 5 mg/kg, n = 5
Readout name: Kp at 4 h
Lab note: record the figure alone, no unit after it.

Documented Kp at 4 h of O=C(/C=C/C=C/c1ccccc1)CCc1ccccc1 : 15.8

* * *

# Assay summary: Tissue distribution study after intravenous administration
# Assay type: in vivo, Sprague-Dawley rats
# Condition context: Sprague-Dawley, rat, iv; Stomach, 2 h, rats, i.v. 5 mg/kg, n = 5
Readout name: Kp at 2 h
I'd appreciate a reply containing only the number, no unit.

Query O=C(/C=C/C=C/c1ccccc1)CCc1ccccc1 [alnustone, Alnustone] yields Kp at 2 h of 0.7

* * *

# Assay summary: Tissue distribution study after intravenous administration
# Assay type: in vivo, Sprague-Dawley rats
# Condition context: Sprague-Dawley, rat, iv; Liver, 1 h, rats, i.v. 5 mg/kg, n = 5
Readout name: Kp at 1 h

Item: O=C(/C=C/C=C/c1ccccc1)CCc1ccccc1 | Kp at 1 h: 1.31

* * *

# Assay summary: Tissue distribution study after intravenous administration
# Assay type: in vivo, Sprague-Dawley rats
# Condition context: Sprague-Dawley, rat, iv; Spleen, 1 h, rats, i.v. 5 mg/kg, n = 5
Readout name: Kp at 1 h
Give the value as a plain number.

Kp at 1 h measured on O=C(/C=C/C=C/c1ccccc1)CCc1ccccc1 [alnustone, Alnustone] = 1.24

* * *

# Assay summary: Tissue distribution study after intravenous administration
# Format: in vivo, Sprague-Dawley rats
# Condition context: Sprague-Dawley, rat, iv; Spleen, 2 h, rats, i.v. 5 mg/kg, n = 5
Readout name: Kp at 2 h
Reply with the value as a number alone.

// O=C(/C=C/C=C/c1ccccc1)CCc1ccccc1 : Kp at 2 h value = 0.7

* * *

# Assay summary: Tissue distribution study after intravenous administration
# Type: in vivo, Sprague-Dawley rats
# Condition context: Sprague-Dawley, rat, iv; Liver, 4 h, rats, i.v. 5 mg/kg, n = 5
# Procedure: The rat was sacrificed quickly by decapitation on the ice. The various tissues (heart, liver, spleen, lung, kidney, brain, stomach, intestine) were harvested and rinsed with ice-cold 0.9% NaCl to remove the superficial blood. […] The mobile phase consisted of methanol and 0.1% formic acid water using a gradient dilution at a flow rate of 0.3 mL/min. […] Alnustone was quantitatively determined with MRM in the positive ion mode, and nitrogen was used to assist nebulization in the ESI source. […]
Readout name: Kp at 4 h
Reply with just the number.

Field Kp at 4 h (entry O=C(/C=C/C=C/c1ccccc1)CCc1ccccc1 [alnustone, Alnustone] ) reads 5.48

* * *

# Assay summary: Tissue distribution study after intravenous administration
# Format: in vivo, Sprague-Dawley rats
# Condition context: Sprague-Dawley, rat, iv; Lung, 1 h, rats, i.v. 5 mg/kg, n = 5
Readout name: Kp at 1 h
Keep the answer to the number alone.

// field: Kp at 1 h; key: O=C(/C=C/C=C/c1ccccc1)CCc1ccccc1 ; value = 3.39

* * *

# Assay summary: Tissue distribution study after intravenous administration
# Type: in vivo, Sprague-Dawley rats
# Condition context: Sprague-Dawley, rat, iv; Stomach, 1 h, rats, i.v. 5 mg/kg, n = 5
Readout name: Kp at 1 h

Kp at 1 h for O=C(/C=C/C=C/c1ccccc1)CCc1ccccc1 is 0.52
